Hi there, I'd appreciate the recorded MIC for every entry that follows.
system: Acinetobacter baumannii ATCC 19606

compound | target.or.test.system | MIC
CC(C)C[C@H](NC(=O)[C@H](C)NC(=O)[C@H](CCCN=C(N)N)NC(=O)[C@H](CCCN=C(N)N)NC(=O)[C@H](Cc1ccccc1)NC(=O)[C@H](C)NC(=O)[C@H](Cc1c[nH]c2ccccc12)NC(=O)CNC(=O)[C@H](CCCN=C(N)N)NC(=O)[C@@H](N)CCCN=C(N)N)C(=O)N[C@@H](C)C(=O)N[C@@H](Cc1ccc(O)cc1)C(=O)NCC(=O)N[C@@H](CCCN=C(N)N)C(=O)N[C@@H](CCCN=C(N)N)C(N)=O [RRGWAFRRALAYGRR] | Acinetobacter baumannii ATCC 19606 | > 30 µM
CC[C@H](C)[C@H](NC(=O)[C@H](CCCN=C(N)N)NC(=O)[C@H](CCC(N)=O)NC(=O)[C@@H](NC(=O)[C@@H](NC(=O)[C@H](CCCN=C(N)N)NC(=O)[C@H](CCCCN)NC(C)=O)[C@@H](C)CC)C(C)C)C(=O)N[C@@H](CCCCN)C(=O)N[C@@H](CC(=O)O)C(=O)N[C@@H](Cc1ccccc1)C(=O)N[C@@H](CC(C)C)C(=O)N[C@@H](CCCN=C(N)N)C(N)=O [KRIVQRIKDFLR] | Acinetobacter baumannii ATCC 19606 | ≥ 163 µM
CC[C@H](C)[C@H](NC(=O)[C@H](CCCN=C(N)N)NC(=O)[C@H](CO)NC(=O)[C@H](CC(C)C)NC(=O)[C@H](Cc1ccccc1)NC(=O)[C@H](CO)NC(=O)[C@@H](N)Cc1ccccc1)C(=O)N[C@@H](Cc1ccccc1)C(N)=O [FSFLSRIF] | Acinetobacter baumannii ATCC 19606 | > 100 µM
CC[C@H](C)[C@H](NC(=O)[C@H](CCCCN)NC(=O)[C@H](CCCN=C(N)N)NC(=O)[C@H](Cc1ccccc1)NC(=O)[C@H](CC(C)C)NC(=O)[C@H](CCCN=C(N)N)NC(=O)[C@@H](N)CCCCN)C(=O)N[C@@H](CC(C)C)C(=O)N[C@@H](CCCCN)C(=O)N[C@@H](Cc1ccc(O)cc1)C(=O)N[C@@H](CC(C)C)C(N)=O [KRLFRKILKYL] | Acinetobacter baumannii ATCC 19606 | 3.04 µM
NC(=O)[C@H](Cc1c[nH]c2ccccc12)NC(=O)[C@H](CCCN=C(N)N)NC(=O)[C@H](CCCN=C(N)N)NC(=O)[C@H](Cc1c[nH]c2ccccc12)NC(=O)[C@H](Cc1c[nH]c2ccccc12)NC(=O)[C@H](Cc1c[nH]c2ccccc12)NC(=O)[C@H](CCCN=C(N)N)NC(=O)[C@H](CCCN=C(N)N)NC(=O)[C@@H](N)Cc1c[nH]c2ccccc12 [WRRWWWRRW] | Acinetobacter baumannii ATCC 19606 | 16 µM

// next item, MIC requested
Record CC(C)C[C@H](NC(=O)[C@H](CC(C)C)NC(=O)[C@H](CCCCN)NC(=O)[C@H](CCCCN)NC(=O)[C@H](CC(C)C)NC(=O)[C@H](CS)NC(=O)[C@H](CCCCN)NC(=O)[C@H](CC(C)C)NC(=O)[C@@H](N)Cc1ccccc1)C(N)=O [FLKCLKKLL] , field MIC: 14.5 µM

Attribution: DBAASP
